System: U2OS
Experiment: Multiplex assay against U2OS
Type: toxicity, cell-based
Settings: human, 12 h, 1 µM, compound concentration 1 uM, replicate 1
Decide using Population Pyknosed Nuclei (%): a value greater than or equal to 8% is Y, a smaller one is N.

CN[C@@H](C)C(=O)N[C@H](C(=O)N1CCC[C@H]1C(=O)Nc1snnc1-c1ccccc1)C1CCCCC1
Y
NCCc1cn(S(=O)(=O)c2c(Cl)nc3sccn23)c2ccccc12.O=C(O)C(=O)O
Y
Br.CS(=O)(=O)Nc1c(O)ccc2c1CCCC2C1=NCCN1 (stereo not drawn)
N
Cl.N=C(N)NC(=O)Cc1c(Cl)cccc1Cl [GUANFACINE HYDROCHLORIDE]
Y
CC(C)c1noc(N2CCC(COc3ccc(-c4ccc(S(C)(=O)=O)cc4)nc3)CC2)n1
Y
CC(=O)Nc1cccc2c1c(Sc1ccc(Cl)cc1)c(C)n2CC(=O)O
N

Kindly consider the entry below.
Is Population Pyknosed Nuclei (%) for CCCCCC(O)/C=C/[C@H]1C(=O)CC(O)C1C/C=C\CCCC(=O)O (stereo partly drawn) at or above 8%?
Y
